- assay.target: T1, transforming growth factor-beta 3 (TGF-β3) (UniProt P10600 301-412)
- T1 construct: also called TGFb3; TGFB3
- T1 sequence (looked up): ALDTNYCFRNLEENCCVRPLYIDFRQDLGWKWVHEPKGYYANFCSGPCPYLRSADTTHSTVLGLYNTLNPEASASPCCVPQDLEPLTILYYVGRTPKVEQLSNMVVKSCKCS
- protocol.summary: ELISA, peptide on streptavidin plate, ligand 100 ng/ml
Ends that are not written are not given here.
experimental.endpoint: ELISA OD450 (OD450)
# output: bare number, implied unit OD450

A selection of reference data follows.
>>> readout_number("NAWQVIKGVLFRIFIIWAISSWFRRGPAPQDQAGPGGA (also: biotinylated, site not given here, also called peptide 28; GT4) [CLPTM1 peptide fragment of SEQ ID NO: 35]")
0.027
>>> readout_number("SDGCYEHFAELDIPQSVQQNG (also: biotinylated, site not given here) [CLPTM1 peptide fragment of SEQ ID NO: 15]")
0.004
>>> readout_number("SALFWEQHDLVYGDWTSGENG (also: biotinylated, site not given here) [CLPTM1 peptide fragment of SEQ ID NO: 14]")
0.02
>>> readout_number("SGQVTSNGSIGRDPPAETQPG (also: biotinylated, site not given here) [CLPTM1 peptide fragment of SEQ ID NO: 9]")
0.001

// ELISA OD450 lookup, binder = GDYYPIIYFNDYWNLQKDYYG (also: biotinylated, site not given here, also called peptide 21) [CLPTM1 peptide fragment of SEQ ID NO: 28] , result: 0.151
